- System Name: Substance-P receptor (Bos taurus)
- Procedure Text: Binding affinity was measured against the Tachykinin receptor 1 in bovine retina using [3H]SP
Task for the reader: assign each of the following molecules its reported pIC50.
Numbers only, as −log10 of the molar value.

| Structure As Smiles | Result Type | Measured |
| --- | --- | --- |
| Cc1cc(C)cc(C(=O)N[C@H]2CCN(C(=O)c3cc(Cl)cc(Cl)c3)[C@H](Cc3ccccc3)C2)c1 | pIC50 | 7.59 |

Query molecule follows.
Ask: Under Substance-P receptor (Bos taurus), report pIC50 for `Cc1cc(C)cc(C(=O)N2CC[C@H](NCCc3ccccc3)C[C@H]2Cc2ccccc2)c1`
Reply: 7.82
